The measurements presented in this section are drawn from PubChem BioAssay (NCI).

Assay: NCI Yeast Anticancer Drug Screen. Data for the mlh1 rad18 strain (AID 175)
Settings: S. cerevisiae mlh1 rad18 strain growth inhibition; at 50.0 µM
This is part of a sample that, as a whole, favours compounds with a hit. Of some 79,000 tested, about 15% had one in any assay. Calls of active or inactive are those of the source. Cut-off read from the data, not from the text of the source: active = growth inhibition above about 70%; inactive = the rest.
Possible outcomes: yes (1) (active), no (0) (inactive)

- compound: "N#CC(C#N)=C(c1ccccc1)c1ccccc1"
  assigned label: "yes (1)"
- compound: "Cc1cc(O)c2c(c1)C(=O)c1c(c(O)cc(O)c1-c1c(O)cc(O)c3c1C(=O)c1cc(C)cc(O)c1C3=O)C2=O"
  assigned label: "no (0)"
- compound: "CCOC(=O)NC(c1ccc(C(NC(=O)OCC)P(=O)(O)NC23CC4CC(CC(C4)C2)C3)cc1)P(=O)(O)NC12CC3CC(CC(C3)C1)C2 (stereo not drawn)"
  assigned label: "yes (1)"
- compound: "CCC(CC)COC(=O)c1ccc(O)c(O)c1"
  assigned label: "yes (1)"
- compound: "CN(C)C(=S)/N=c1\\ss/c(=N/C(=S)N(C)C)n1-c1ccc([N+](=O)[O-])cc1"
  assigned label: "yes (1)"
- compound: "COC(=O)c1ccccc1C#Cc1ccccc1C(=O)OC"
  assigned label: "no (0)"
- compound: "O=C1CCCC/C1=C(\\Br)I"
  assigned label: "yes (1)"
- compound: "CC(=O)c1csc2c1C(=O)c1scc(C(C)=O)c1C2=O"
  assigned label: "yes (1)"
- compound: "CCNCCNc1cc(O)c2c(c1O)C(=O)c1ccccc1C2=O"
  assigned label: "yes (1)"
- compound: "CCN(CC)Cc1c(-c2ccccc2)oc(-c2ccccc2)c1CN(CC)CC"
  assigned label: "no (0)"
- compound: "Cc1cc(N/N=C/c2cccc3ccccc23)c2cc3c(cc2n1)OCO3"
  assigned label: "yes (1)"
- compound: "O=C(O)Cc1ccccc1CCc1ccccc1Cl"
  assigned label: "yes (1)"
- compound: "CCOC(=O)CCC(NC(=O)c1ccc(NC(OC)c2nc3cc(C(F)(F)F)ccc3nc2-c2ccccc2)cc1)C(=O)OCC (stereo not drawn)"
  assigned label: "yes (1)"
- compound: "COC(=O)c1ccc(/C=C/C2=CC(=O)C=CC2=O)cc1"
  assigned label: "yes (1)"
- compound: "CS(=O)(=O)OCCN(CCOS(C)(=O)=O)c1ccc(C=Nc2cccc(Cl)c2)cc1"
  assigned label: "yes (1)"
- compound: "C[C@H](CCC(=O)O)[C@H]1CC[C@H]2[C@@H]3[C@@H](O)C[C@@H]4C[C@H](O)CC[C@]4(C)[C@H]3CC[C@]12C"
  assigned label: "yes (1)"
- compound: "CNC(=O)OC(C)CN1c2ccccc2Sc2ccc(Cl)cc21 (stereo not drawn)"
  assigned label: "yes (1)"
- compound: "CCOC(=O)c1[nH]n(-c2ccccc2)c(=O)c1/C=N/C(=S)Nc1ccccc1OC"
  assigned label: "no (0)"
- compound: "C/C(=N/O)c1cc([N+](=O)[O-])c(O)cc1O"
  assigned label: "yes (1)"
- compound: "Clc1ccc2c(NCCCCCCNc3ccnc4cc(Cl)ccc34)ccnc2c1"
  assigned label: "yes (1)"
- compound: "O=S(=O)(c1ccc(OCC(O)COc2ccc(S(=O)(=O)c3ccc(OCC4CO4)cc3)cc2)cc1)c1ccc(OCC2CO2)cc1 (stereo not drawn)"
  assigned label: "yes (1)"
- compound: "COc1cc(/C=C(\\C#N)c2ccc([N+](=O)[O-])cc2)ccc1O"
  assigned label: "no (0)"
- compound: "C[N+](C)(C)c1nc(N)nc2c1ncn2C1OC(CO)C(O)C1O (stereo not drawn)"
  assigned label: "no (0)"
- compound: "COC(=O)c1ccc(OC)cc1"
  assigned label: "no (0)"
- compound: "CCC[CH2][Sn]([CH2]CCC)([O]C(=O)c1c(F)cccc1F)[O]C(=O)c1c(F)cccc1F"
  assigned label: "yes (1)"
- compound: "O=C(CC(=O)c1ccccc1)CC1(O)CCCCC1"
  assigned label: "yes (1)"
- compound: "CCCCN(CCC=C1c2ccccc2Oc2ccccc21)CCCC"
  assigned label: "yes (1)"
- compound: "COC(=O)[C@H]1O[C@H]1c1ccncc1"
  assigned label: "no (0)"
- compound: "Cc1nc(-n2nc(-c3ccccc3)cc2-c2ccccc2)sc1C(/C=C\\c1ccc([N+](=O)[O-])cc1)=N/NC(=S)NN"
  assigned label: "no (0)"
- compound: "S=C(N/N=C/c1ccccn1)N1CCCCCC1"
  assigned label: "yes (1)"
- compound: "O=[N+]([O-])OC1CCCC(O[N+](=O)[O-])c2c1n([O-])c1ccccc1[n+]2=O (stereo not drawn)"
  assigned label: "yes (1)"
- compound: "CCCCN(CCCC)CCC(O)(c1ccc(OC)c2ccccc12)C(O)(CCN(CCCC)CCCC)c1ccc(OC)c2ccccc12 (stereo not drawn)"
  assigned label: "yes (1)"
- compound: "CCCCc1c2c(nc3c1CCc1cc4cc5c(nc4nc1-3)-c1nc3c(c(CCCC)c1CC5)CCC/C3=N/OC)/C(=N\\OC)CCC2"
  assigned label: "yes (1)"
- compound: "CC(C)(C)C(=O)CC(=O)C(F)(F)C(F)(F)C(F)(F)F.CC(C)(C)C(=O)CC(=O)C(F)(F)C(F)(F)C(F)(F)F.CC(C)(C)C(=O)CC(=O)C(F)(F)C(F)(F)C(F)(F)F.[Fe]"
  assigned label: "yes (1)"
- compound: "CCS(=O)(=O)/C=C/c1ccc2ccccc2n1"
  assigned label: "no (0)"
- compound: "CCCCN(C)C(=S)N/N=C(\\C)c1ccccn1"
  assigned label: "yes (1)"
- compound: "N=C(/C(=C/c1ccccc1)c1ccccc1)c1ccccc1"
  assigned label: "yes (1)"
- compound: "S=C(N/N=C(/c1ccccc1)c1ccccn1)Nc1cccc(Cl)c1"
  assigned label: "no (0)"
